# Tested on: U2OS
# assay_details: Multiplex assay against U2OS
# Type: toxicity, cell-based
# conditions: human, 12 h, 10 µM, compound concentration 10 uM, replicate 2
Threshold check on Population Hoechst High Intensity Objects (%): at or above 8% gives yes, strictly below gives no.

Input: Evaluate CN(C)C(=O)N[C@H]1CC[C@H](CCN2CCN(c3cccc(Cl)c3Cl)CC2)CC1.Cl [CARIPRAZINE HYDROCHLORIDE] : Population Hoechst High Intensity Objects (%) at minimum 8%?
Output: no

Input: And the next one, `Cc1csc2c(N[C@@H](C)CN3CCN(S(=O)(=O)c4ccc(Cl)c(Cl)c4)CC3)ncnc12` ?
Output: no

Input: And the next one, `COc1ncc(-c2ccc3nccc(-c4ccnnc4)c3c2)cc1NS(=O)(=O)c1ccc(F)cc1F` ?
Output: no

Input: And the next one, C=CC(=O)Nc1cc2c(Nc3ccc(F)c(Cl)c3)ncnc2cc1OCCCN1CCOCC1.Cl.Cl [CANERTINIB DIHYDROCHLORIDE] ?
Output: yes

Input: And the next one, `CCN(CC)CCCCNc1ncc2cc(-c3cc(OC)cc(OC)c3)c(NC(=O)NC(C)(C)C)nc2n1` ?
Output: yes

Input: And the next one, `Cc1nc(Nc2n[nH]c3c2CN(C(=O)N[C@H](CN(C)C)c2ccccc2)C3(C)C)c2sccc2n1` ?
Output: yes

Input: And the next one, `Cc1nc(-c2cn3c(n2)-c2ccc(-c4cnn(C(C)(C)C(N)=O)c4)cc2OCC3)n(C(C)C)n1` ?
Output: yes

Input: And the next one, COc1cccc([C@@H](C)NCCCc2ccccc2Cl)c1.Cl [TECALCET HYDROCHLORIDE] ?
Output: no

Input: And the next one, `CN1CCN(c2ccc(OC(F)(F)F)c(Nc3ncc4c(n3)-c3c(c(C(N)=O)nn3CCO)CC4)c2)CC1` ?
Output: yes

Input: And the next one, `Cn1cc(-c2[nH]c3cc(NC(=O)[C@H](N)C4CCCCC4)cc4c3c2C=NNC4=O)cn1` ?
Output: yes

Input: And the next one, CC(C)NCC(O)COc1ccc(CCOCC2CC2)cc1.Cl (stereo not given) [BETAXOLOL HYDROCHLORIDE] ?
Output: no

Input: And the next one, CN1CCC[C@@H]1CCO[C@](C)(c1ccccc1)c1ccc(Cl)cc1.O=C(O)/C=C/C(=O)O [CLEMASTINE FUMARATE] ?
Output: yes
